system: Mycobacterium tuberculosis; test: Antibacterial activity against Mycobacterium tuberculosis H37Rv after 18 hrs by agar plate dilution method; format: functional
Quick reference: MIC of the listed items.
Kindly write the number and append the unit.

// known answers, use as guide
>>> result("CN(CCCOC/C=C/COc1ccc(C(=O)c2ccc(Cl)cc2)c(O)c1)CCc1ccc(F)cc1")
"12.5 µg/mL"
>>> result("CO[C@H]1/C=C/O[C@@]2(C)Oc3c(C)c(O)c4c(O)c(c(/C=N/N5CCN(C)CC5)c(O)c4c3C2=O)NC(=O)/C(C)=C\\C=C\\[C@H](C)[C@H](O)[C@@H](C)[C@@H](O)[C@@H](C)[C@H](OC(C)=O)[C@@H]1C [RIFAMPIN]")
"0.2 µg/mL"
>>> result("NNC(=O)c1ccncc1 [ISONIAZID]")
"0.1 µg/mL"

Request: I have this compound here, C=CCN(C)CCCCCCCCOc1ccc(C(=O)c2ccc(Cl)cc2)c(O)c1 , and I need its recorded MIC.
Response: 1.5 µg/mL
